Test system: SN12C
Assay procedure: NCI tumour cell line growth inhibition, 48 h
The source made the active and inactive calls. Rule as the data show it: active = GI50 up to about 1.1 µM and inactive = higher.
Possible outcomes: T = active, F = inactive

>>> assigned_category("Cc1cccc(/C=N/NC(=S)Nc2ccc(Cl)cc2)n1")
"F"
>>> assigned_category("CC(=O)OCC1OC(SC2=NC(=O)CS2)C(OC(C)=O)C(OC(C)=O)C1OC(C)=O (configuration not stated)")
"F"
>>> assigned_category("Cc1cccc(C(C)(C)C)c1NC(=O)C(=O)Cc1nc2ccccc2s1")
"F"
>>> assigned_category("CCOC(=O)c1c(N2CCOCC2)[nH]c(=O)c(C(c2ccc(Cl)c([N+](=O)[O-])c2)c2c(O)c(C(=O)OCC)c(N3CCOCC3)[nH]c2=O)c1O")
"F"
>>> assigned_category("O=C1NC(c2cccc3ccccc23)Nc2ccc(Cl)cc21 (configuration not stated)")
"T"
>>> assigned_category("COc1cccc(/N=N/N2CCCC2)c1")
"F"
>>> assigned_category("CCOC(=O)/C(C(=O)Nc1ccc(Cl)cc1)=C(/N)N1CCCC1")
"F"
>>> assigned_category("O=C(CSCC(=O)N/N=C/c1ccc2c(c1)OCO2)N/N=C/c1ccc2c(c1)OCO2")
"F"
>>> assigned_category("COc1cc2cc(C(=O)N3CC(CCl)c4c3cc(N(C)C)c3ccccc43)[nH]c2c(OC)c1OC (configuration not stated)")
"T"
>>> assigned_category("Cc1cc2c(=O)cc(-c3cccs3)oc2c(C(=O)O)c1C")
"F"
>>> assigned_category("O=C(NN=C1CCCCC1)Nc1ccccc1Cl")
"F"
>>> assigned_category("CCOC(=O)CCC(C(=O)OCC)n1nnc2cc(Nc3c(C)[n+]([O-])c4cc(Cl)ccc4[n+]3[O-])ccc21 (configuration not stated)")
"F"
